B1: Homeobox protein cut-like 2, residues 895 to 963; numbered along this chain, O14529 (parent)
chain: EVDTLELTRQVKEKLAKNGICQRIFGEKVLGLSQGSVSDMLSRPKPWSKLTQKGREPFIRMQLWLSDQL

Variants of: B1
experiment_description: abundance fitness (aPCA) (normalised: wild type 0, dead -1); higher = more abundant; growth selection in yeast, the domain comes from the species named
condition_parameters: Homo sapiens
result_type: abundance fitness
# print the numeric value only

# annotated cases, reported abundance fitness shown
# mutation_key, abundance fitness
rows = [
    ("S42V", -0.146),
    ("K53G", -0.309),
    ("K45A", -0.129),
    ("G26A", 0.082),
    ("E27M", -0.14),
    ("C21F", -0.094),
]

Now turn to the next variant.
Lab note: measured abundance fitness of I59Q was 0.031
